Attribution: PubChem BioAssay (EPA / NIEHS)

read-out: urokinase plasminogen activator (uPA), PLAU (gene 5328); experiment: BSK_BE3C_uPA: BioMAP Diversity Plus: BE3C Assay for urokinase plasminogen activator (uPA) Biomarker Activity (AID 2283038); conditions: primary human bronchial epithelial cells; actives raise or lower the signal;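 on outcome: uPA protein level quantified by ELISA in cell cultures; uPA read one day after compound addition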
The source made the active and inactive calls. How the source made its calls: active means hit-call score of the fitted dose curve at least 0.9, where 1 is the maximum; inactive means score below 0.9.
Log the outcome using a class from active, inactive

[[record]]
compound = "CCCOc1sc(C(=O)N2CCC(c3cc(CN)ccc3F)CC2)c(C)c1Br"
assignedlabel = "active"

[[record]]
compound = "OCCC(F)(F)C(F)(F)C(F)(F)C(F)(F)C(F)(F)C(F)(F)F"
assignedlabel = "inactive"

[[record]]
compound = "CCC(=C(c1ccc(O)cc1)c1ccc(OCCN(C)C)cc1)c1ccccc1"
assignedlabel = "active"


Would you mind telling me which call this test gave CC(C)(C)CC(C)(C)c1ccc(O)c(-n2nc3ccccc3n2)c1 ?
inactive

Tell me the assay call for CCCCC(CC)COC(=O)CCCCC(=O)OCc1ccccc1 (stereo not given) please.
inactive

* * *

assay: STM_H9_NormalizedViability: Cytotoxicity Assessment at 120 hours in the Stemina devTOX quickPredict H9 human embryonic stem cell (hESC)-based Assay (AID 2283784)
Records with an inconclusive call do not appear. Active and inactive are the calls of the source. Rule for the calls: active = hit-call score of the fitted dose curve at least 0.9, where 1 is the maximum; inconclusive = response in the unintended direction; inactive = score below 0.9.
Response enum: T = active, F = inactive

[[record]]
molecule = "N#C[C@@H]1CC(F)(F)CN1C(=O)CNC1CC2CCC(C1)N2c1ncccn1 (stereo partly specified)"
assignedlabel = "F"

[[record]]
molecule = "Nc1cccc2c(N)cccc12"
assignedlabel = "F"

[[record]]
molecule = "CCc1ccc(CCOc2ccc(CC3SC(=O)NC3=O)cc2)nc1 (stereo unspecified)"
assignedlabel = "T"

[[record]]
molecule = "CN1CCN(c2ccccc2/C=C2\\SCCN(c3ccc(Cl)c(Cl)c3)C2=O)CC1"
assignedlabel = "F"

[[record]]
molecule = "C[C@@H]1C[C@H]2[C@@H]3CCC4=CC(=O)C=C[C@]4(C)[C@@]3(F)[C@@H](O)C[C@]2(C)[C@@]1(O)C(=O)COP(=O)(O)O"
assignedlabel = "T"


Okay, now this molecule:
What classification did CCCCCCCCCCCCc1ccccc1S(=O)(=O)O end up with in this test?
F

* * *

assay: ATG_NRF2_ARE_CIS: Attagene CIS-FACTORIAL HepG2 Assay for human Nuclear Factor Erythroid 2 Related Factor 2 (NFR2) response to Antioxidant Response Elements (ARE) (AID 2282992); settings: HepG2 Attagene ARE/NRF2 reporter, transcription factor activity; actives raise or lower the signal;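 on AC50: reporter mRNA level measured by RT-PCR and capillary electrophoresis fluorescence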
Active and inactive are the calls of the source. Rule for the calls: active = hit-call score of the fitted dose curve at least 0.9, where 1 is the maximum; inactive = score below 0.9.
measurementType: AC50

// known answers, use as guide
[[record]]
compound = "CC(C)(C)CC(C)(C)c1ccc(O)c(-n2nc3ccccc3n2)c1"
measurementtype = "AC50"
testresult = "36.4 µM (active)"

[[record]]
compound = "COCC(C)OCC(C)O (stereo not drawn)"
measurementtype = "AC50"
testresult = "inactive"

[[record]]
compound = "CN(C)C=O"
measurementtype = "AC50"
testresult = "inactive"

[[record]]
compound = "COC(=O)CCCCC(=O)OC"
measurementtype = "AC50"
testresult = "inactive"

[[record]]
compound = "O=[N+]([O-])c1ccc(O)cc1"
measurementtype = "AC50"
testresult = "inactive"


Parameter requested: AC50. Apply to each item below.
1. CCOC(=O)CC(O)(CC(=O)OCC)C(=O)OCC
2. Oc1cccc(O)c1
3. NC(=O)N1C(=O)C(C(=O)c2cc(Cl)cs2)c2cc(F)c(Cl)cc21 (stereo not drawn)

inactive
inactive
6.05 µM (active)
